test system: serum and liver lipid levels in rats; assay: Serum and liver lipid levels and relative liver weight in rats (100 mg/kg, 10 days); type: in vivo, Male rats of the Wistar strain; conditions: Rattus norvegicus, po, 240 h, Table 3; in parentheses; Control = (100); read-out: Liver lipid levels PL, relative to Control (100)
MEASURED PROPERTY: response vs control in vivo at 100 mg/kg (%)

{"MOLECULE": "O=C(OCCc1ccc(OCc2ccc(Cl)cc2)cc1)c1cccnc1", "MEASURED PROPERTY": "response vs control in vivo at 100 mg/kg", "UNIT TEXT": "%", "NUMERIC READOUT": 104}
{"MOLECULE": "O=C(OCCCc1ccc(OCc2ccc(Cl)cc2)cc1)c1cccnc1", "MEASURED PROPERTY": "response vs control in vivo at 100 mg/kg", "UNIT TEXT": "%", "NUMERIC READOUT": 96.1}
{"MOLECULE": "O=C(OCCCCCCc1ccc(OCc2ccc(Cl)cc2)cc1)c1cccnc1", "MEASURED PROPERTY": "response vs control in vivo at 100 mg/kg", "UNIT TEXT": "%", "NUMERIC READOUT": 106}
{"MOLECULE": "O=C(OCCCCCCc1ccc(OCCCCCCc2ccc(Cl)cc2)cc1)c1cccnc1", "MEASURED PROPERTY": "response vs control in vivo at 100 mg/kg", "UNIT TEXT": "%", "NUMERIC READOUT": 107}
{"MOLECULE": "O=C(OCCc1ccc(OCCCCc2ccc(Cl)cc2)cc1)c1cccnc1", "MEASURED PROPERTY": "response vs control in vivo at 100 mg/kg", "UNIT TEXT": "%", "NUMERIC READOUT": 109}
{"MOLECULE": "O=C(OCc1ccc(OCc2ccc(Cl)cc2)cc1)c1cccnc1 [KCD-232, 4-(4-chlorobenzyloxy)benzyl nicotinate, reference compound]", "MEASURED PROPERTY": "response vs control in vivo at 100 mg/kg", "UNIT TEXT": "%", "NUMERIC READOUT": 99.7}
{"MOLECULE": "O=C(OCCCCc1ccc(OCc2ccc(Cl)cc2)cc1)c1cccnc1", "MEASURED PROPERTY": "response vs control in vivo at 100 mg/kg", "UNIT TEXT": "%", "NUMERIC READOUT": 101}
